Value source: a melting point compilation (Tetko et al.; mined from patent text by program, amines drawn as free bases though some values may be those of a salt)

endpoint.label: melting point

> print(dat)
                                   molecule  endpoint.label      obs.value
1  CC=CCn1c(C)c(CCCCC)c2cnnc(OCc3ccc(F)cc3)c21   melting point    65 to 69 °C
2  CN1Cc2c(-c3nc(CCl)cs3)ncn2-c2ccc(F)cc2C1=O   melting point  239 to 241 °C
3  COC1CN(CCC(C(=O)N(C)C)(c2ccccc2)c2ccccc2)CCC1NC(=O)c1ccccc1 (centres undefined)   melting point         147 °C
4       O=C(O)CCCCCCCCCCOc1ccccc1OCc1ccccc1   melting point    62 to 63 °C
5  COc1ccc2cc3c(Cl)nn(CC(C)N(C)C)c3nc2c1 (centres undefined)   melting point    78 to 79 °C

Look at this molecule and give its reported melting point. CCCN1C=CC=C2C(=O)NC(c3ccccc3OCC)N=C21 (centres undefined)
134 to 137 °C

Look at this molecule and give its reported melting point. `CC(C)(C)OC(=O)CC[C@H](NC(=O)c1ccc(C=Cc2cnc3nc(N)nc(N)c3c2)cc1)C(=O)OC(C)(C)C`
> 300 °C

Look at this molecule and give its reported melting point. `COc1cc(OC)c(-c2cccs2)cc1/C=C/C(=O)c1ccc(S(=O)(=O)NN2CCCCC2)cc1`
174 to 176 °C

Look at this molecule and give its reported melting point. `FC(F)(F)Oc1ccc(Cn2cnc3c(Cl)ncnc32)cc1`
115 to 116 °C

---

Listing of recorded melting point by entry.

Worked set:
> print(dat)
                                   compound      obs.value
1   COC(=O)C1=C(O)c2ccc3ccccc3c2S(=O)(=O)N1  218 to 220 °C
2  COCc1c(C(=O)c2ccccc2)ncc2[nH]c3ccc(Oc4nccc5ccccc45)cc3c12  159 to 160 °C
3  C=CC(C)(O)C#Cc1ncn2c1CN(C)C(=O)c1c(Cl)cccc1-2 (stereo not given)  185 to 187 °C
4             O=c1[nH]nc2ccc(-c3ccccc3)nn12  255 to 257 °C

Now consider the entry below.
Look at this compound and give its reported melting point. `CCOC(=O)NN=Cc1nc(C(C)(C)C)[nH]c1C`
226 to 228 °C

---

Listing of recorded melting point by entry.
Residues, ends and D or L forms follow the SMILES beside them. *: point of attachment. Cbz = O=C(OCc1ccccc1)*

> print(dat)
                                   compound      obs.value
1  CCC1CCCCN1C(=O)c1cc2ccccc2c(-c2ccccc2)n1 (centres undefined)          86 °C
2  CCOc1ccc(-c2nn(C(C)c3oc4ccccc4c(=O)c3-c3cccc(F)c3)c3ncnc(N)c23)cc1F (centres undefined)  216 to 218 °C
3  CCC1(CC)C(=O)N(c2ccc(C#N)c(C(F)(F)F)c2)C(=S)N1C  126 to 127 °C
4  C[C@H](NC(=O)[C@H](C)NC(=O)OCc1ccccc1)C(=O)O (Cbz-Ala-Ala-OH)  203 to 205 °C
5  COc1cc(C)c(C(=O)c2c(OC)cnc(Cl)c2Cl)c(OC)c1OC    98 to 99 °C
6  O=Cc1cn(Cc2ccc(Cl)cc2)nc1CN1CCC(c2ccccc2)(c2ccccc2)CC1  133 to 134 °C
7  CC(=O)CC(=O)CC(=O)c1cc(S(=O)(=O)c2ccccc2)ccc1[N+](=O)[O-]  143 to 145 °C
8  Fc1ccc(C23CNCC(CO2)O3)cc1 (centres undefined)          89 °C

Look at this compound and give its reported melting point. CC(C)(C)OC(=O)NC(Cc1ccccc1)C(O)CNCC(O)C(Cc1ccccc1)NC(=O)OC(C)(C)CCCNCc1ccccc1 (centres undefined)
128 to 132 °C

Look at this compound and give its reported melting point. `COc1cc(C(=O)Oc2ccccc2C(C)=O)cc([N+](=O)[O-])c1OC`
108 to 109 °C

Look at this compound and give its reported melting point. `COc1ccc(C(=O)N(C(=O)c2ccc(OC)cc2)c2nc3ccc(N(C)C)cc3c(NCc3ccccc3)c2C#N)cc1`
156 °C

Look at this compound and give its reported melting point. `N#Cc1c(Cl)c([N+](=O)[O-])cc2[nH]c(=O)c(=O)[nH]c12`
327 to 331 °C

Look at this compound and give its reported melting point. CC(C)(C)NCC(O)COc1cccc2nc[nH]c12 (centres undefined)
203 to 205 °C
